# TARGET: E340Q mutant bovine olfactory CNG channel (Bos taurus, UniProt Q03041, E340Q)
# Sequence (Q03041 1-663 E340Q): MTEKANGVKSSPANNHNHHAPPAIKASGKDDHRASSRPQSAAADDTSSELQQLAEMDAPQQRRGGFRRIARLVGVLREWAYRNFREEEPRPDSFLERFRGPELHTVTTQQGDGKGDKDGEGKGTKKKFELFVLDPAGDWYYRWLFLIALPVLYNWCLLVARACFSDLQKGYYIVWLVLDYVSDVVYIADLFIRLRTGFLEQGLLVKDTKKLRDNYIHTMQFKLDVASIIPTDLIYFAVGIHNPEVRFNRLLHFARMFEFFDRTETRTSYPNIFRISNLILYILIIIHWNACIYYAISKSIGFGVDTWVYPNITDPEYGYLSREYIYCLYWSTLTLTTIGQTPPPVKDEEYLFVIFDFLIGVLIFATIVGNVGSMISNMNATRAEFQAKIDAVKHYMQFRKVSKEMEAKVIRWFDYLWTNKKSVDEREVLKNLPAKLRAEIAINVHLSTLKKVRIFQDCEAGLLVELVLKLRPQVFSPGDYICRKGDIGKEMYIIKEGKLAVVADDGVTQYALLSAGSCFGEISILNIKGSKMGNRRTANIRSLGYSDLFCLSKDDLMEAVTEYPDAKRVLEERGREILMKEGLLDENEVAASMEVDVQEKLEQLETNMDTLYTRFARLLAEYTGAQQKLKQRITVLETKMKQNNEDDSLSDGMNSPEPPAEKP
# Format: biochemical
# EXPERIMENTAL_CONTEXT: read-out: K 1/2,cG, −80 mV, single patch, Fig. 1 fit
ASSAY_ENDPOINT: pEC50
// pEC50: -log10(molar conc.)

Give me measured pEC50, please, for this compound: Nc1nc2c(ncn2[C@@H]2O[C@@H]3COP(=O)(O)O[C@H]3[C@H]2O)c(=O)[nH]1 5.32

---

# TARGET: E340N mutant bovine olfactory CNG channel (Bos taurus, UniProt Q03041, E340N)
# Assay type: biochemical
# EXPERIMENTAL_CONTEXT: read-out: K 1/2,cG, −80 mV, single patch, Fig. 1 fit
ASSAY_ENDPOINT: pEC50
// pEC50: -log10(molar conc.)

Give me measured pEC50, please, for this compound: Nc1nc2c(ncn2[C@@H]2O[C@@H]3COP(=O)(O)O[C@H]3[C@H]2O)c(=O)[nH]1 5.18

---

# TARGET: E340D mutant bovine olfactory CNG channel (Bos taurus, UniProt Q03041, E340D)
# Format: biochemical
# EXPERIMENTAL_CONTEXT: read-out: K 1/2, cGMP, −80 mV
ASSAY_ENDPOINT: pEC50
// pEC50: -log10(molar conc.)

Give me measured pEC50, please, for this compound: Nc1nc2c(ncn2[C@@H]2O[C@@H]3COP(=O)(O)O[C@H]3[C@H]2O)c(=O)[nH]1 5.31

---

# TARGET: E340G mutant bovine olfactory CNG channel (Bos taurus, UniProt Q03041, E340G)
# Sequence (Q03041 1-663 E340G): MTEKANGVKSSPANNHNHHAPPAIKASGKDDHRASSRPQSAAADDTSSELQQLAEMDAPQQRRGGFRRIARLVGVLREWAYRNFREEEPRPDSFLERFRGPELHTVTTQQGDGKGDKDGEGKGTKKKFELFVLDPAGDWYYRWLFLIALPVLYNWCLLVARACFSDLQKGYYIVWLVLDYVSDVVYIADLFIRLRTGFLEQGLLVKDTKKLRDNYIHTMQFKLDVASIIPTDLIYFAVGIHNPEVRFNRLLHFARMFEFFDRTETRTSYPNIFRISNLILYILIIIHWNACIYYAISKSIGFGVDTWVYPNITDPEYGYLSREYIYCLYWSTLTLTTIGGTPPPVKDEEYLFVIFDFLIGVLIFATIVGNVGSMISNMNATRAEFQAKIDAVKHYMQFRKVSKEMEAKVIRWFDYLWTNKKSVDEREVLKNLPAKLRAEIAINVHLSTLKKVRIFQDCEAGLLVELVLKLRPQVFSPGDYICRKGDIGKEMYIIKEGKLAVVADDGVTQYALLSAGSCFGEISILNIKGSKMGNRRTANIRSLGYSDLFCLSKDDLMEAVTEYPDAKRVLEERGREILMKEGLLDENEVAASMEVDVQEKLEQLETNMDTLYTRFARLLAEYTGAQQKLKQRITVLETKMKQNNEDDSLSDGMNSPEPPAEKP
# Format: biochemical
# EXPERIMENTAL_CONTEXT: read-out: K 1/2, cGMP, −80 mV
ASSAY_ENDPOINT: pEC50
// pEC50: -log10(molar conc.)

Report value only: pEC50, E340G mutant bovine olfactory CNG channel (Bos taurus, UniProt Q03041, E340G), Nc1nc2c(ncn2[C@@H]2O[C@@H]3COP(=O)(O)O[C@H]3[C@H]2O)c(=O)[nH]1 4.82
